Measured on: T1, human IL-36R extracellular domain expressed with a C-terminal mouse IgG2a Fc tag (hIL-36R-mFc) (human; mouse, UniProt Q9HB29 20-337)
T1 construct: not shown: mouse IgG2a Fc, E98-K330
T1 sequence (looked up): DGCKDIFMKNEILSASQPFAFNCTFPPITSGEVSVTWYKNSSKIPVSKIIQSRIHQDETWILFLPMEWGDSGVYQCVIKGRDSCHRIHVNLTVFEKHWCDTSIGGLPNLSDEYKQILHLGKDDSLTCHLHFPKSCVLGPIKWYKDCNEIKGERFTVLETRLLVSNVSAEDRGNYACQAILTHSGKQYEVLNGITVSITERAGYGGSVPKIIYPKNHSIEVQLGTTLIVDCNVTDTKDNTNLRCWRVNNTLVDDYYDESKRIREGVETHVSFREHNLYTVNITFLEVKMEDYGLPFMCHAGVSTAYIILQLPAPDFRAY
Measurement protocol: SPR Biacore 4000, mAb captured on anti-hFc, 25C
Exercise: for every item that follows, state its recorded koff.
Express your answer in s⁻¹, writing the number without its unit.

Query: Quick check: koff of H4H14708P2 (antibody, human IgG4 S228P, kappa, V domains shown, Fully human anti-IL-36R antibody) VH: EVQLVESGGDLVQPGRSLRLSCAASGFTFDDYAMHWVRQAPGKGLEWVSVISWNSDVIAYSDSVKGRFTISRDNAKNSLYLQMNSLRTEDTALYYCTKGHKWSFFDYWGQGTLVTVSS VL: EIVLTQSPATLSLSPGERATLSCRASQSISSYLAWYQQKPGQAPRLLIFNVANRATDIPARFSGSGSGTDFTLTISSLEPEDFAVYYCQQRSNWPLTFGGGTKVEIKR ?
Result: 0.000128

Query: Quick check: koff of H4H14699P2 (antibody, human IgG4 S228P, kappa, V domains shown, Fully human anti-IL-36R antibody) VH: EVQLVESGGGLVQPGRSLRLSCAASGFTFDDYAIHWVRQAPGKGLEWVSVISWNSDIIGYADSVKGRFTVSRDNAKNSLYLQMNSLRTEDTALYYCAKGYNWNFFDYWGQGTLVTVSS VL: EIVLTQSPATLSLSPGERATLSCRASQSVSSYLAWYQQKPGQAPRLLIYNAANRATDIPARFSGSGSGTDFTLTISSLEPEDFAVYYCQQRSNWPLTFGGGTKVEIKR ?
Result: 0.000203

Query: Quick check: koff of H4H14700P2 (antibody, human IgG4 S228P, kappa, V domains shown, Fully human anti-IL-36R antibody) VH: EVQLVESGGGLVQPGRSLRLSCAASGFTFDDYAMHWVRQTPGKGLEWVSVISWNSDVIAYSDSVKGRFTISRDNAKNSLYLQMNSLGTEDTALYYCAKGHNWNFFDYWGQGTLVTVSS VL: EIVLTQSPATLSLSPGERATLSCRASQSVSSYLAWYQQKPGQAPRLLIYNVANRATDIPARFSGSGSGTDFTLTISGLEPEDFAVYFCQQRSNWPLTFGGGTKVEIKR ?
Result: 0.00012

Query: Quick check: koff of H4H14709P (antibody, human IgG4 S228P, kappa, V domains shown, Fully human anti-IL-36R antibody) VH: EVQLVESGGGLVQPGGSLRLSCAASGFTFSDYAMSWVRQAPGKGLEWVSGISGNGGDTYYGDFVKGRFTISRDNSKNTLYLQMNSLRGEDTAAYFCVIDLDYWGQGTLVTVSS VL: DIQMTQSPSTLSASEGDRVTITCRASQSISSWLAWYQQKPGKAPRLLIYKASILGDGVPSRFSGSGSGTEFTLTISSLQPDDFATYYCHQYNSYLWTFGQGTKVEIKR ?
Result: 8.62e-05
